All figures here come from the supplement of paper PMC10567573.

Form field: protein stability index (one value per entry).
B1: CHCHD3 (parent)
chain: YSGAYGASVSDEELKRRVAEELAL

# Variants of: B1
# assayExplanation: protein stability index of a GFP-peptide fusion (GPS, HEK-293T) (PSI 1-6); higher = more stable;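 further: lentivirally expressed fusions sorted by FACS into six bins by GFP to DsRed ratio, PSI derived from sequencing read proportions per bin multiplied by bin number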
# conditions: c terminus: a fixed tail appended
Respond with the number and no other words.

S2I 2.17

Would you kindly share the measured protein stability index for S2M ?
3.24

Would you mind telling me what protein stability index value was observed for A19E ?
3.04

Field request: protein stability index | item: L24I
2.46

What does the record list as protein stability index for R17Y ?
2.33

protein stability index for E13Y ?
1.76

Report protein stability index for V18N please.
2.73

Look up protein stability index: E12D
2.99
